experimental_target: acetylcholine receptor
experiment_description: SPR, AchR immobilised on chip, peptide at 10 uM
Some binders, each annotated with its measured Binding affinity.
property: Binding affinity (RU)

1) KLFQRK [6mer-2-310]    149
2) RRQYKK [6mer-2-332]    145
3) KQQSKR [6mer-2-293]    153
4) KLRSKR [6mer-2-284]    151
5) RQLYRK [6mer-2-290]    135
6) KQLRKK [6mer-2-330]    139
7) RVFSRK [6mer-2-325]    142
8) RWRLKK [6mer-2-300]    153
